# method.summary: Turbidity, derived count rate of scattered light
# Format: physicochemical
# experimental.setup: derived count rate of scattered light at 633 nm, 173°, from zeta-potential measurement, 0.1 mg/mL in 1 mM KCl after 1 d at 1 mg/mL in PBS; turbidity / microscopic aggregation; mean of triplicate
Returns: string. Value is y if measured Count Rate / kcps is below 200 kcps, and n if it is greater than or equal to it.

Would you please look over these solved cases?
> print(dat)
       substance  answer.label
1        CKFKFPF             y
2  KIKIQINMWQRGD             n
3        KFKFQFF             y
4     KIRGKFEKED             n
5     CKIKIQINMW             n
6         EFEFQF             n
7    RGDKIKIQINM             y
8        CKFKFQF             n

(Q) Does the reported Count Rate / kcps of RGECKFKFQF stay below 200 kcps?
(A) n

(Q) Param item: KFQFNMW
(A) n

(Q) Here is the next substance: RQGNINIVA [reference compound]
(A) y

(Q) Record: HGDKCHGDKC
(A) y

(Q) Further, for CKIKIWIW ?
(A) n

(Q) Moving on to RGDCKIKIQINM
(A) n

(Q) And the next one, CKFKFQFW ?
(A) n

(Q) What do we get for KIKIQINMAQ ?
(A) n

(Q) What do you get for KIKIQINMW ?
(A) n

(Q) // query: RIRFHIW
(A) y

(Q) For CKFKQFFNMWQ then?
(A) n

(Q) Please do the same for NMWQKIKQII as well.
(A) n

(Q) Also, RGDSKIKIQIC please.
(A) n

(Q) Same question, QCKIKIQI this time
(A) n

(Q) What would you report for KAKAQANMWQ ?
(A) y

* * *

# method.summary: Turbidity, derived count rate of scattered light
# Type: physicochemical
# experimental.setup: turbidity, Log10 of derived count rate of scattered light; Figure 3A source data
Classes by Log10 Count Rate: bucket A (below 2), bucket B (2 to below 3), bucket C (3 or more)

Here's what some known entries look like.
> print(dat)
      substance  answer.label
1       CKFKQFF      bucket A
2  QCKIKIQINMWQ      bucket C

(Q) Which of the defined bands does the recorded Log10 Count Rate of KIKIQINAWQ sit within?
(A) bucket C

(Q) Ok, now CKFKQFFNM
(A) bucket C

* * *

Quick reference: FTIR ß-sheet content/ % of the listed items.
# method.summary: β-sheet content by ATR-FT-IR
# Type: physicochemical
Report as a plain number; the unit % is understood.

> print(dat)
                 substance  recorded.value
1  QCKIKIQINMWQ [EF-C opt]           48.38
2        CKIKIQINMWQ [MG1]           44.89

(Q) Query: FTIR ß-sheet content/ %; subject: KIKQIINMWQ [JG2]
(A) 40.68

(Q) And what about the substance CKIKQIINMWQ [MG5a / CK17] ?
(A) 51

(Q) What would you report for CKIKQII [MG4a] ?
(A) 25

(Q) Again, but for CKFKQFF [CK15]
(A) 45.41

(Q) Note, next up: CKFKFQFNM [BL3]
(A) 41

(Q) Another: KAKAQA [JJA2 / TM153]
(A) 40.34

(Q) # iterate: CKFKFQF [BL4]
(A) 47.43
